B1: POU domain, class 3, transcription factor 4, residues 280 to 335; numbered along this chain, P49335 (parent)
chain: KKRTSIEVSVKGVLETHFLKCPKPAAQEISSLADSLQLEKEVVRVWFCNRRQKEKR

Variants of: B1
Assay: abundance fitness (aPCA) (normalised: wild type 0, dead -1); higher = more abundant; growth selection in yeast, the domain comes from the species named
Settings: Homo sapiens
Measurement type: abundance fitness
Reply with the value as a number alone.

Exercise: Specify measured abundance fitness for `K40Q` .
Key: -0.063
